This collection of values is drawn from BindingDB's records for doi:10.7270/Q2F47MKR.

# procedure details: blockers of orphan receptor GPR35 – imaging, image-based, set 2, SAR follow-up (AID 2480)
# experimental context: inactive by the depositor's call
experimental readout: IC50 (µM)
Record the value in µM, omitting the unit from your answer.

Problem: // returns reported IC50 for input `O=C(CCCN1C(=O)/C(=C\c2cccs2)SC1=S)Nc1ccc(O)cc1`
Result: 11

Problem: Similarly, `O=C(CCCN1C(=O)/C(=C/c2cccs2)SC1=S)Nc1ccc(O)cc1` ?
Result: 10.7

Problem: Item: `CCOc1ccc(NC(=O)CSc2nc3ccsc3c(=O)n2Cc2ccc(C(=O)O)cc2)cc1`
Result: 12.5

Problem: How about `c1ccc(Cn2ncc3c(N4CCN(c5ccccc5)CC4)ncnc32)cc1` ?
Result: 17

Problem: // next record `Cc1ccc(Cn2ncc3c(N4CCN(c5ccc(C)cc5)CC4)ncnc32)cc1`
Result: 17.7

Problem: Input `O=C(CCCN1C(=O)/C(=C\c2ccccc2)SC1=S)Nc1ccc(O)cc1`
Result: 11.8

Problem: Now consider `Cc1nc(N2CCC(C)CC2)c2c(C)c(C(=O)Nc3ccccc3C(F)(F)F)sc2n1` and answer again.
Result: 10.2

---

# procedure details: blockers of orphan receptor GPR35 – imaging, image-based, set 2, SAR follow-up (AID 2480)
experimental readout: IC50 (nM)
Please give a number only; it is taken to be in nM.

>>> readout_value("Cc1ccc(/C=C2\\SC(=S)N(CCCC(=O)Nc3ccc(O)cc3)C2=O)cc1 [MLS000777252]")
1420

Consider the record given below.
Problem: Bench note: what IC50 did `O=C(Nc1ccc2nc(SCc3ccc(Cl)cc3)sc2c1)c1ccccc1C(=O)N1CCOCC1` show?
Result: 554

---

# procedure details: blockers of orphan receptor GPR35 – imaging, image-based, set 2, SAR follow-up (AID 2480)
Reported values of pIC50 for individual entries
As a rule, pIC50 stands for the negative log10 of the concentration, concentration in M.

Worked examples follow.
>>> readout_value("O=C(CCCN1C(=O)S/C(=C/C=C/c2ccccc2)C1=O)Nc1ccc(C(=O)O)cc1")
5.93
>>> readout_value("O=C(CCCN1C(=O)/C(=C/c2ccccc2)SC1=S)Nc1ccc(C(=O)O)c(O)c1")
6.53
>>> readout_value("O=C(CCCN1C(=O)/C(=C/c2ccc3c(c2)OCO3)SC1=S)Nc1ccc(C(=O)O)cc1")
5.93
>>> readout_value("Clc1ccc(Cn2ncc3c(N4CCN(c5ccccc5)CC4)ncnc32)cc1")
5.14
>>> readout_value("O=C(CCCN1C(=O)/C(=C/c2ccc3c(c2)OCO3)SC1=S)Nc1cccc(C(=O)O)c1")
6.01

Problem: Given the entry `Cn1cc(/C=C/c2cc[n+](C)cc2)c2cc(Cl)ccc21` , report its measured pIC50.
Result: 5.29

Problem: Please answer likewise for `Cc1ccc2[nH]c(C)c(/C=C/c3cc[n+](C)cc3)c2c1`
Result: 5.63

Problem: Queued: `Cc1ccc(Cn2ncc3c(N4CCN(c5ccccc5C)CC4)ncnc32)cc1`
Result: 5.58

Problem: Same question, `CC(C)c1ccc(NC(=O)CSc2nc3ccsc3c(=O)n2Cc2ccc(C(=O)O)cc2)cc1` this time
Result: 5.88

Problem: What do you get for `COc1cccc(/C=C2\SC(=S)N(CCCC(=O)Nc3ccc(C(=O)O)cc3)C2=O)c1` ?
Result: 6.19

Problem: Okay, and `COc1ccc(/C=C2\SC(=S)N(CCCC(=O)Nc3cccc(C(=O)O)c3)C2=O)cc1OC` ?
Result: 6.22

Problem: Moving on to the next compound: `CC(/C=C1\SC(=S)N(CCCC(=O)Nc2ccc(C(=O)O)cc2)C1=O)=C\c1ccccc1`
Result: 6.98

Problem: And for `O=C(CCCN1C(=O)/C(=C/c2ccc3c(c2)OCO3)SC1=S)Nc1ccc(C(=O)O)c(O)c1` ?
Result: 6.52
